Data origin, for the record: PubChem BioAssay

Listing of entries alongside the reported composite z-score.
- assayedSystem: Epidermal growth factor receptor (Homo sapiens) (UniProt P00533)
- Sequence (P00533 whole entry, looked up): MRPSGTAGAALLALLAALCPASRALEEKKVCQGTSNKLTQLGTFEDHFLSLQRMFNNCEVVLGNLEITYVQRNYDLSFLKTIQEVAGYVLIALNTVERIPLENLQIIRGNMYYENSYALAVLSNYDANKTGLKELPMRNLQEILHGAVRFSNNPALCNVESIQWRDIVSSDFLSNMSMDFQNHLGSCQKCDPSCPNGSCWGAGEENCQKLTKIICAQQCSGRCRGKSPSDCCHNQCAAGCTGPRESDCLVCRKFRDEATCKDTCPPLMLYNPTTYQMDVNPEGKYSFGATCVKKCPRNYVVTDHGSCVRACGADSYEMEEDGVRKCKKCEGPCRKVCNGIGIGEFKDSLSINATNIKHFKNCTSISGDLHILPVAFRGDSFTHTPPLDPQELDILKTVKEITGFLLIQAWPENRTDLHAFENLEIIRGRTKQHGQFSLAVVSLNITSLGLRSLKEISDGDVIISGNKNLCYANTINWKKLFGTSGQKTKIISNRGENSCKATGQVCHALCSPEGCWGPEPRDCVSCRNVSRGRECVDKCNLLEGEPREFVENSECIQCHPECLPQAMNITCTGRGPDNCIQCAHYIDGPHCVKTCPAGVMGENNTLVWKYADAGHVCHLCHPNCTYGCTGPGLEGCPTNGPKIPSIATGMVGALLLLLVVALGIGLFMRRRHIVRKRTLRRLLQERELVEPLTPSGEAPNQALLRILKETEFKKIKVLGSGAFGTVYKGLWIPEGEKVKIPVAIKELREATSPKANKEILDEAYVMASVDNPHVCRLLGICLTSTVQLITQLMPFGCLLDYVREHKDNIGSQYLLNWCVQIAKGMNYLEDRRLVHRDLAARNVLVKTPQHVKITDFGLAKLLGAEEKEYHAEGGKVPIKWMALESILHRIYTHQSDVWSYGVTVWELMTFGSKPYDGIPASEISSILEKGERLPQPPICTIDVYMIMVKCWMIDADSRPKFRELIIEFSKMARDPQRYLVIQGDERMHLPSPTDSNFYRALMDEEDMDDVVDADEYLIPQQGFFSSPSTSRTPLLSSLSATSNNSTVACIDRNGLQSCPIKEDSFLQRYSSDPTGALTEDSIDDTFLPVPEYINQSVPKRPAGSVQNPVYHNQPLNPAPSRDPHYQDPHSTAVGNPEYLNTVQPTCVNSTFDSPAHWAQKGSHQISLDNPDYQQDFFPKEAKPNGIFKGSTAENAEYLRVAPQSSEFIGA
- assayExplanation: compounds binding epidermal growth factor receptor – biochemical, small-molecule microarray, 635 nm fluorescence, primary screen (AID 1104);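 note: score merges 667 nm emission intensity with spot signal to noise over triplicate slides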
- conditionParameters: EGFR binding, higher = more signal

compound: CCCCC(O)C1C=CC2C(=O)N(C)C(=O)C2N1N1CCCCC1 (centres undefined)
composite z-score: 0.229
//
compound: O=C(O)[C@H]1C[C@H]2C(=O)N3CCC[C@H]3C(=O)N2[C@H]1c1ccc(O)cc1
composite z-score: -1.51
//
compound: C#CCNCc1ccccc1
composite z-score: 0.397
//
compound: C=C(CCCC)C(=O)CC[C@@H](OC(C)=O)c1ccc(CO)o1
composite z-score: -0.353
//
compound: C[N+](C)(C)CCCC[C@@H]1NC(=O)[C@@H]2C[C@H](C(=O)NCCCCCN)[C@H](c3ccc(O)cc3)N2C1=O
composite z-score: 0.024
//
compound: C=C(C)[C@@H]1CC=C(C(O)C2C=CC3C(=O)NC(=O)C3N2Nc2ccc(Cl)cc2Cl)CC1 (some centres undefined)
composite z-score: 0.433
//
compound: Cc1ccc(S[C@]2(C(=O)NCC(C)C)CC(=O)N(Cc3cc(C(F)(F)F)cc(C(F)(F)F)c3)[C@@H]2c2ccc(CO)cc2)cc1
composite z-score: -1.25
//
compound: [N-]=[N+]=NCc1ccccc1C[C@@]1(C(=O)NCC(O)CO)N=C(c2ccc(OCCCO)cc2)O[C@@H]1c1ccccc1 (some centres undefined)
composite z-score: -0.455
//
compound: COC(=O)[C@@]1(Cc2ccccc2)[C@H]2c3cc(C(=O)N4CCCC4)n(Cc4c(CO)[nH]cc(C)c4=O)c3C[C@H]2CN1C(=O)c1ccccc1
composite z-score: 0.113
//
compound: C=C(CCCC)/C(=C/C[C@H](OC(C)=O)c1ccc(OCCO)cc1)c1cnc2ccccc2c1
composite z-score: 0.384
//
compound: [N-]=[N+]=Nc1ccccc1C[C@@]1(C(=O)N2CCCCC2)N=C(c2ccc(OCCCO)cc2)O[C@@H]1c1ccccc1N=[N+]=[N-]
composite z-score: 0.105
//
compound: O=C1NC(=O)C2C1C=CC(C(O)C1CC=CCC1)N2Nc1ccccn1 (centres undefined)
composite z-score: 1.25
//
compound: COCCOC(=O)N1C(=O)[C@@]2(c3cc(C#CC4(O)CCCCCC4)ccc31)[C@H](C(=O)Nc1nc3ccccc3s1)[C@H]1C(=O)O[C@H](c3ccccc3)[C@H](c3ccccc3)N1[C@@H]2c1ccc(OCCO)cc1
composite z-score: 0.583
//
compound: CC=CC(O)C1C=CC2C(=O)N(C)C(=O)C2N1N(c1ccccc1)c1ccccc1 (centres undefined)
composite z-score: 1.19

###

Listing of entries alongside the reported z-score.
- assayExplanation: viability profiling in RPMI8226 myeloma cells – cell-based, resazurin fluorescence, basal, 24 h, PK04 Diversity Set, profiling panel (AID 1180);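 note: RPMI8826 multiple myeloma cell line at 5000 cells per well; test concentration not given here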
- conditionParameters: higher = more signal
readoutLabel: z-score

compound: CCCCC(=C=CC[C@@H](O)c1ccc(CO)o1)CCO
measuredNumber: 1.22
--
compound: C#CCNCc1ccccc1
measuredNumber: 0.353
--
compound: COc1ccc([C@H]2OC[C@@H]3CCC(=O)N32)cc1
measuredNumber: 0.131
--
compound: Cc1ccc(/C=C/C=O)cc1
measuredNumber: 0.812
--
compound: CCCCN1CC=CC23O[C@@H]4C=CCOC(=O)[C@@H]4[C@H]2C(=O)N(CCCCCCO)[C@@H]3C1=O (stereo partly specified)
measuredNumber: -0.386
--
compound: COC(=O)[C@]1(CCC(=O)OC(C)(C)C)N=C(c2ccc(OCCCO)cc2)O[C@@H]1c1ccccc1
measuredNumber: -1.47
--
compound: NC(=O)N1C(=O)C2C(C1=O)C1C=C(CCCO)C2C(C2CC2)N1Cc1cc2c(cc1Br)OCO2 (stereo unspecified)
measuredNumber: -0.46
--
compound: O=C1NC(=O)C2C1C=CC(C(O)c1ccc(-c3ccccc3)s1)N2Nc1ccc(Cl)cc1Cl (stereo unspecified)
measuredNumber: -1.75
--
compound: CC(C)Cc1ccc(CN2CC[C@@H](N)C2)cc1
measuredNumber: -0.681
--
compound: COc1cc2c(cc1O)C(c1cccs1)N(Cc1ccc([N+](=O)[O-])o1)CC2 (stereo unspecified)
measuredNumber: -0.182
--
compound: OCC1C=C(/C=C/c2ccccc2)CN1Cc1ccccc1Br (stereo unspecified)
measuredNumber: -0.589
